- System: CHEK1
- run-conditions: concentration: 1 μM, replicates: in singlicate; n = 1;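 note: KINOMEscan kinase panel screen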
observable: %Inh (%)

>>> experimental_result("Clc1ccc(-c2nn3ncccc3c2-c2ccnc(Nc3ccc4c(c3)OCCO4)n2)cc1")
0
>>> experimental_result("COC(=O)Nc1nc2cc(Oc3ccc(NC(=O)Nc4cc(C(F)(F)F)ccc4F)cn3)ccc2[nH]1.Cl.Cl")
0
>>> experimental_result("COc1cccc(NC(=O)NC2CCN(c3ccnc(Nc4cc(OC)c(OC)c(OC)c4)n3)C2)c1 (stereo not drawn)")
0
>>> experimental_result("COc1cc2c(cc1OCCN1CCNCC1)ncc1c3ccc(C#N)cc3[nH]c21")
84
>>> experimental_result("Cl.NC(=O)c1cccc(Nc2nccc(Nc3ccc(Oc4c(Cl)cccc4Cl)c(Cl)c3)n2)c1")
1
>>> experimental_result("COc1ccc(Nc2nccc(NCCNC(=O)c3cc4ccccc4s3)n2)cc1")
0
>>> experimental_result("C[C@@H]1CC[C@@H](C(=O)Nc2ccccc2)CN1c1cc(-c2ccc3c(N)n[nH]c3c2)nc(N)n1")
0
>>> experimental_result("COCCOCCOc1cc2ncc3c4ccc(C#N)cc4[nH]c3c2cc1OC")
55
>>> experimental_result("Cc1ccc(F)c(C(=O)Nc2cccc(-c3nn4ccccc4c3-c3ccnc(Nc4cccc(F)c4)n3)c2)c1F")
6
>>> experimental_result("Cl.c1ccc(-c2ccc3c(Nc4ccc5[nH]ccc5c4)ccnc3c2)nc1")
0
>>> experimental_result("Oc1cc(Nc2ccnc3cc(I)ccc23)ccc1F")
2
>>> experimental_result("Cc1ccc(C)c(NC(=O)NC2CCN(c3ccnc(Nc4ccc(F)cc4)n3)C2)c1 (stereo not drawn)")
0
>>> experimental_result("Cn1cc(-c2ccc3c(c2)CCN3C(=O)Cc2cccc(Cl)c2)c2c(N)ncnc21")
3
>>> experimental_result("O=C(NC1CCN(c2ccnc(Nc3ccc(F)cc3)n2)C1)c1cc2ccccc2s1 (stereo not drawn)")
0
>>> experimental_result("Cl.c1ccc(-c2ccc3c(Nc4ccc5[nH]ncc5c4)ccnc3c2)nc1")
0
>>> experimental_result("CCn1c(-c2nonc2N)nc2c(C#CC(C)(C)O)nc(OC[C@H](N)c3ccccc3)cc21")
0
>>> experimental_result("COc1cc(Nc2nccc(N3CCC(NC(=O)Nc4cccc(C(C)=O)c4)C3)n2)cc(OC)c1OC (stereo not drawn)")
0
>>> experimental_result("COC(=O)Nc1nc2ccc(Oc3ccc(NC(=O)Nc4cc(C(F)(F)F)ccc4F)cc3)cc2n1C.Cl")
0
>>> experimental_result("Cl.Cl.NCC(C(=O)Nc1cc(Br)c(-c2ccnc3[nH]ccc23)s1)c1ccccc1 (stereo not drawn)")
0
>>> experimental_result("Cl.Cl.NCC(NC(=O)c1cc(-c2ccccc2)c(-c2ccnc3[nH]ccc23)s1)c1ccccc1 (stereo not drawn)")
0
>>> experimental_result("Nc1ncc(-c2cccnc2)c2scc(-c3ccc4c(c3)CCN4C(=O)Cc3ccccc3)c12")
18
>>> experimental_result("COc1cccc(C(=O)Nc2cccc(Oc3ccc4nc(NC(=O)C5CC5)cn4n3)c2)c1")
15
>>> experimental_result("COc1cc(Nc2ncc3c(C)nc(-c4cc5ccccc5[nH]4)n3n2)cc(OC)c1OC")
0
>>> experimental_result("O=C(Nc1cccc(-c2nn3ncccc3c2-c2ccnc(Nc3ccccc3)n2)c1)c1c(F)cccc1F")
5

###

- System: EPHB6
- run-conditions: concentration: 1 μM, replicates: in singlicate; n = 1
observable: %Inh (%)

>>> experimental_result("O=c1[nH]cc(-c2ccc(N3CCOCC3)cc2)c2sc(-c3cn[nH]c3)cc12")
31
>>> experimental_result("CC(=O)N1CCN(c2ccc(Nc3nccc(-c4sc(C(C)C)nc4-c4cccc(NS(=O)(=O)c5cccc(Cl)c5)c4)n3)cn2)CC1")
97.7
>>> experimental_result("COc1cccc(NC(=O)NC2CCN(c3ccnc(Nc4cc(OC)c(OC)c(OC)c4)n3)C2)c1 (stereo not drawn)")
94.3
>>> experimental_result("Nc1ncc(-c2ccc3nccc(-c4ccncc4)c3c2)cc1S(=O)(=O)N1CCOCC1")
36
>>> experimental_result("COc1cccc(-c2ccc3c(NC(=O)C4CC4)n[nH]c3n2)c1")
48
>>> experimental_result("CN(C)Cc1ccc(-c2ccc3c(Nc4ccc(Oc5ccccn5)cc4)ccnc3c2)o1")
97.4

The origin of these recorded values is paper PMC5540273.
